MEASUREMENT_TARGET: NUDT7 (Homo sapiens)
Construct: residues 14-235, E. coli, pNIC28-Bsa4, N-terminal His6 tag removed by TEV, construct 26672 Da
Sequence (P0C024 14-235): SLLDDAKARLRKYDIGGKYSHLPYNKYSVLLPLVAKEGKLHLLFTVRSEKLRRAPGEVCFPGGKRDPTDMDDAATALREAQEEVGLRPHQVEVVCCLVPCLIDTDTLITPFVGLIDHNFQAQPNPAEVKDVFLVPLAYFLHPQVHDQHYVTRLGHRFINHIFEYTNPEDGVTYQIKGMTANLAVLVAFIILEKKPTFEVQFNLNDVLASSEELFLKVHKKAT
Set-up: Intact protein LC/MS covalent labelling, fragments in pools of five, 200 uM each, 4 °C
DETAILS: 24 h, 4 °C, pool of five; 200 µM; covalent
Exercise: for every item that follows, state its recorded NUDT7.
Could you respond with only the numeric value?

### Prompt What value of NUDT7 has been reported for the following compound? C=CC(=O)NC1(C2CC2)CCOCC1
### Response 0

### Prompt Check O=C(CCl)N1CCN(c2ncc(Cl)cc2Cl)CC1 too.
### Response 0.22

### Prompt Check O=C(CCl)NNC(=O)c1cccc(Cl)c1 too.
### Response 0

### Prompt Check C=CC(=O)NC1CCN(C(=O)NCC)C1 (centres unmarked) too.
### Response 0

### Prompt Check CC1CCc2c(sc(NC(=O)CCl)c2C#N)C1 (centres unmarked) too.
### Response 0.47

----------
ASSAY_NAME: in vitro
Design: species or system CCD841, HEK293
DETAILS: human, hb2 cells, read-out: HB-2 Cells Viability (%)
Response field label: string, one of true (viability at 48 h, 10 µM strictly below 60%) or false.

### Prompt Consider the compound O=C(CCl)NCc1ccc(Cl)cc1 [PCM-0102668] . Is its viability at 48 h, 10 µM strictly less than 60%?
### Response false

### Prompt Check CN(Cc1ccccc1F)C(=O)CCl [PCM-0102787] too.
### Response true

### Prompt Check CC(=O)c1ccc(N2CCN(C(=O)CCl)CC2)c(F)c1 [PCM-0102273] too.
### Response true

### Prompt Check Cl.O=C(CCl)N1CCN(c2ncccn2)CC1 [PCM-0102093] too.
### Response true

### Prompt Check C=CC(=O)N1CC2(CCCC2)c2cc3c(cc2C1C)OCCO3 (stereo not drawn) [PCM-0102560] too.
### Response false

### Prompt Check O=C(CCl)Nc1nnc(-c2ccccc2)o1 [PCM-0102458] too.
### Response false

### Prompt Check C=CC(=O)Nc1nc2ccccc2s1 [PCM-0102695] too.
### Response true

### Prompt Check C=CC(=O)N1CCC(CS(C)(=O)=O)CC1 [PCM-0102651] too.
### Response false

### Prompt Check O=C(CCl)N1CCN(c2ncc(C(F)(F)F)cc2Cl)CC1 [PCM-0102378] too.
### Response true

### Prompt Check CC(C)(C)c1cc(NC(=O)CCl)n(-c2ccccc2)n1 [PCM-0102536] too.
### Response true

### Prompt Check O=C(CCl)N1CCCC(c2nc3ccccc3s2)C1 (stereo not drawn) [PCM-0102425] too.
### Response true

### Prompt Check CC(NC(=O)CCl)c1cc2ccccc2o1 (stereo not drawn) [PCM-0102117] too.
### Response false

### Prompt Check CC1CCCCC1N(C)C(=O)CCl (stereo not drawn) [PCM-0103026] too.
### Response true

### Prompt Check CC(=O)N1CCC(NC(=O)CCl)CC1 [PCM-0102932] too.
### Response false

### Prompt Check C=CC(=O)NC1CCCN(C(=O)OC)C1 (stereo not drawn) [PCM-0102526] too.
### Response false

### Prompt Check Cc1ccc(S(=O)(=O)N2CCN(C(=O)CCl)CC2)cc1C [PCM-0102379] too.
### Response true

### Prompt Check CC1(NC(=O)CCl)CCS(=O)(=O)C1 (stereo not drawn) [PCM-0102230] too.
### Response false

### Prompt Check O=C(CCl)Nc1ccccc1I [PCM-0102509] too.
### Response false

### Prompt Check O=C(CCl)Nc1nc(C2CC2)no1 [PCM-0103076] too.
### Response false

### Prompt Check CC(C)N(CC(F)(F)F)C(=O)CCl [PCM-0102516] too.
### Response false

### Prompt Check C=CC(=O)Nc1ccccc1C(F)(F)F [PCM-0102581] too.
### Response false
